# System tested: plasma kallikrein (Homo sapiens)
# Construct: from tissue
# Sequence (P03952 391-638 limits assumed): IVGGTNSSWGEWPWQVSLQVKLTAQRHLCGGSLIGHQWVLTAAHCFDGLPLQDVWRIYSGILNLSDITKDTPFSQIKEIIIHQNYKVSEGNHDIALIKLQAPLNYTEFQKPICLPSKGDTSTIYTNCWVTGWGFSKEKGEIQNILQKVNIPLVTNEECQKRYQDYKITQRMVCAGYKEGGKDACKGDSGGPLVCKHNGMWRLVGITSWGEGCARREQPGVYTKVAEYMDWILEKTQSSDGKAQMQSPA
# Sequence (P03952 20-390 partner limits assumed): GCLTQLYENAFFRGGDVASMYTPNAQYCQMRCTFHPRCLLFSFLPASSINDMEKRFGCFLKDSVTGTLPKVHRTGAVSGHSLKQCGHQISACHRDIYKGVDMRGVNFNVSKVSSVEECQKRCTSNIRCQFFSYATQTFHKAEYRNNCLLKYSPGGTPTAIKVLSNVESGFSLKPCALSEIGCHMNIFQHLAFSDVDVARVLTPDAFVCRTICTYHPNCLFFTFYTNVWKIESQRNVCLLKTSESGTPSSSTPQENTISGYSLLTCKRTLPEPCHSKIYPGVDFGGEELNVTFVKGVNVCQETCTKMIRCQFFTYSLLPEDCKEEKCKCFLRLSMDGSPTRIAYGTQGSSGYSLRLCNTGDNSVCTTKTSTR
# Assay method text: Neat human plasma assay, FXIIa contact pathway-activated, PFR-AMC substrate
# Type: biochemical
# Condition summary: citrated human plasma 78% final, 10 nM human FXIIa, 100 μM PFR-AMC; read-out: Human Plasma Assay: IC90
Readings of IC90 for the listed molecules

Consider the worked cases shown below.
Molecule: Cc1ccnc([C@H]2C[C@@H]2C(=O)Nc2cc(OCc3cn4cc(C5CC5)cc(N5CC(=O)N(C)C5=O)c4n3)ncn2)n1 (single isomer, unassigned) [Example 30]
IC90: < 400 nM

Molecule: CN1CCC(O)(c2cc(C3CC3)cn3cc(CNc4cc(NC(=O)[C@H]5C[C@@H]5c5cccc(Cl)c5)ncn4)nc23)CC1 [Example 401]
IC90: 400 to 1500 nM

Molecule: N#Cc1ccc(Cl)cc1[C@H]1C[C@@H]1C(=O)Nc1cc(N2C[C@@H](O)C[C@@H]2c2cn3cc(C4CC4)ccc3n2)ncn1 (relative stereo) [Example 477]
IC90: 1500 to 10000 nM

Molecule: CNCc1cc(C2CC2)cn2cc(CNc3ccnc(NC(=O)[C@H]4C[C@@H]4c4cccc(Cl)c4)c3)nc12 [Example 595]
IC90: < 400 nM

Molecule: CN1CCN(c2cc(C3CC3)cn3cc(CNc4ccnc(NC(=O)[C@@H]5C[C@H]5c5cc(Cl)ccc5C#N)c4)nc23)CC1 (racemic) [Example 143]
IC90: 400 to 1500 nM

Query: Which value of IC90 has been reported for Cc1ccnc([C@H]2C[C@@H]2C(=O)Nc2cc(N(C)Cc3cn4cc(C5CC5)cc(N5CC(=O)N(CC(C)(C)O)C5=O)c4n3)nc(C)n2)n1 [Example 359] in the records?
Response: 400 to 1500 nM

Query: Form field: reported IC90 of N#Cc1ccc(Cl)cc1[C@H]1C[C@@H]1C(=O)Nc1cc(NCc2cn3cc(C4CC4)cc(N4CCCC4=O)c3n2)ccn1 (racemic) [Example 79]
Response: 400 to 1500 nM

Query: Consider the molecule shown here: CN1C(=O)CN(c2cc(C3CC3)cn3cc(CNc4cc(NC(=O)[C@H]5C[C@@H]5c5nccc(Cl)n5)ncn4)nc23)C1=O (racemic) [Example I-168] What is its recorded IC90?
Response: 400 to 1500 nM

Query: Need IC90 of Cc1ccnc([C@H]2C[C@@H]2C(=O)Nc2cc(N3C[C@@H](O)C[C@@H]3c3cn4cc(C5CC5)cc(N5CC6CC6C5=O)c4n3)ncn2)n1 (relative stereo) [Example 482] , thanks.
Response: 400 to 1500 nM

Query: Return reported IC90; argument: CN1CCC(Oc2cc(C3CC3)cn3cc(CNc4cc(NC(=O)[C@H]5C[C@@H]5c5cccc(Cl)c5)ncn4)nc23)C1=O (some centres unmarked) [Example I-147]
Response: 1500 to 10000 nM

Query: Dear colleague, I am looking for the recorded IC90 of the following molecule: O=C1CN(c2cc(C3CC3)cn3cc(CNc4cc(NC(=O)[C@H]5C[C@@H]5c5cc(Cl)ccn5)nc(O)n4)nc23)C(=O)N1 [Example 487]
Response: < 400 nM

Where do the numbers come from? From patent US20240228488A1.
